In this section, each of the compounds is paired with its reported pKi.
test name: Displacement of 2-[125I]iodomelatonin from human MT2 receptor expressed in […] NIH3T3 cells after 90 mins
Format: cell-based

Please review the entries below; each comes with its answer.
compound	assay metric	result
CCC(=O)N[C@@H]1Cc2ccccc2[C@H](c2ccccc2)C1	pKi	9.26
CCC(=O)N[C@@H]1Cc2ccccc2[C@@H](c2ccccc2)C1	pKi	6.1
CCC(=O)NC1=Cc2ccccc2C(c2ccccc2)C1 (racemic)	pKi	7.43
CCC(=O)N[C@H]1Cc2ccccc2[C@H](c2ccccc2)C1 (racemic)	pKi	8.06
CCC(=O)N[C@H]1Cc2ccccc2[C@@H](c2ccccc2)C1	pKi	7.01

Ask: Need pKi, item CCC(=O)N[C@H]1Cc2ccccc2[C@H](c2ccccc2)C1
Result: 8.02

Ask: Need pKi, item CCC(=O)NC1=Cc2c(OC)cccc2C(c2ccccc2)C1 (racemic)
Result: 7.11
